Reported response values for a set of variants
B1: Ssa1-WT [yeast] / Sis1-FLRnq1 complex (Sis1-WT premixed with denatured Rnq1) [yeast] (parent complex)
chain 1: not shown
chain 2: MVKETKLYDLLGVSPSANEQELKKGYRKAALKYHPDKPTGDTEKFKEISEAFEILNDPQKREIYDQYGLEAARSGGPSFGPGGPGGAGGAGGFPGGAGGFSGGHAFSNEDAFNIFSQFFGGSSPFGGADDSGFSFSSYPSGGGAGMGGMPGGMGGMHGGMGGMPGGFRSASSSPTYPEEETVQVNLPVSLEDLFVGKKKSFKIGRKGPHGASEKTQIDIQLKPGWKAGTKITYKNQGDYNPQTGRRKTLQFVIQEKSHPNFKRDGDDLIYTLPLSFKESLLGFSKTIQTIDGRTLPLSRVQPVQPSQTSTYPGQGMPTPKNPSQRGNLIVKYKVDYPISLNDAQKRAIDENF
chain 3: MDTDKLISEAESHFSQGNHAEAVAKLTSAAQSNPNDEQMSTIESLIQKIAGYVMDNRSGGSDASQDRAAGGGSSFMNTLMADSKGSSQTQLGKLALLATVMTHSSNKGSSNRGFDVGTVMSMLSGSGGGSQSMGASGLAALASQFFKSGNNSQGQGQGQGQGQGQGQGQGQGSFTALASLASSFMNSNNNNQQGQNQSSGGSSFGALASMASSFMHSNNNQNSNNSQQGYNQSYQNGNQNSQGYNNQQYQGGNGGYQQQQGQSGGAFSSLASMAQSYLGGGQTQSNQQQYNQQGQNNQQQYQQQGQNYQHQQQGQQQQQGHSSSFSALASMASSYLGNNSNSNSSYGGQQQANEYGRPQQNGQQQSNEYGRPQYGGNQNSNGQHESFNFSGNFSQQNNNGNQNRY

Variants of: B1
Assay: ELISA; Denatured Rnq1 premixed with Sis1 and immobilized; Ssa1-WT at 20 nM; detection with αSsa1 antibody; parent: 230; read off a plot

Here's what some known entries look like.
>  <variantCode>
chain 2 E53A

>  <response>
~120 Abs 450nm

$$$$
>  <variantCode>
chain 2 E53K

>  <response>
~110 Abs 450nm

$$$$
>  <variantCode>
chain 2 N56L

>  <response>
~89 Abs 450nm

$$$$

Input: Look up response for this variant: chain 2 S49V
Output: ~170 Abs 450nm

Each recorded value in this set is attributed to paper PMC12756002.
